# Lookup of reported melting point keyed by entry

Compound: CC(C)Cc1nnc(NC(=O)c2ccc(C3CCC(CC(=O)O)CC3)cc2)s1 (stereo not drawn) [Compound 19]
Recorded result: 263 °C
--
Compound: O=C(O)C=C1CCC(c2ccc(C(=O)Nc3nnc(Cc4ccccc4)s3)cc2)CC1 (stereo not drawn) [Compound 42]
Recorded result: 255 °C
--
Compound: O=C(Nc1nnc(CCC2CCCC2)s1)c1ccc(O[C@H]2CC[C@@H](C(=O)O)CC2)cc1 [Compound 57]
Recorded result: 270 °C

Query block: Give its melting point value. Item: O=C(O)COC1CCC(c2ccc(C(=O)Nc3nnc(Cc4ccccc4)s3)cc2)CC1 (stereo not drawn) [Compound 46]
Result block: 250 to 255 °C

Query block: Give its melting point value. Item: O=C(O)CC1CCC(c2ccc(C(=O)Nc3nnc(C4CCCC4)s3)cc2)CC1 (stereo not drawn) [Compound 16]
Result block: 274 °C

Query block: Give its melting point value. Item: O=C(O)C[C@H]1CC[C@H](c2ccc(C(=O)Nc3nnc(NC(=O)Cc4ccccc4)s3)cc2)CC1 [Compound 76]
Result block: 291 °C

====

Measurement kind: melting point (°C)
Only the number, expressed in °C, is required.

The examples below pair each entry with its known result.
Compound: O=C(O)C[C@H]1CC[C@H](c2ccc(C(=O)Nc3nnc(Cc4cc(F)cc(F)c4)s3)cc2)CC1
Recorded result: 294

Compound: O=C(O)C[C@H]1CC[C@H](c2ccc(C(=O)Nc3nnc(CCN4CCOCC4)s3)cc2)CC1
Recorded result: 213

Alright, here's another compound for you.
Query block: Give its melting point value. Item: O=C(O)C[C@H]1CC[C@H](c2ccc(C(=O)Nc3nnc(C4CC(c5ccccc5)C4)s3)cc2)CC1 (stereo partly shown)
Result block: 247

====

# Lookup of reported melting point keyed by entry
I'd appreciate it if you included the unit after the number.

Molecule: O=C(O)CC1CCC(c2ccc(C(=O)Nc3nnc(COc4ccc(F)cc4)s3)cc2)CC1 (stereo not drawn) [Compound 24]
Recorded result: 275 °C
//
Molecule: O=C(O)C[C@H]1CC[C@H](c2ccc(C(=O)Nc3nnc(CSCc4ccccc4)s3)cc2)CC1 [Compound 96]
Recorded result: 234 °C

Query block: Give its melting point value. Item: CC(C)(C)c1nnc(NC(=O)c2ccc(C3CCC(CC(=O)O)CC3)cc2)s1 (stereo not drawn) [Compound 14]
Result block: 298 °C

====

# Lookup of reported melting point keyed by entry
Only the number, expressed in °C, is required.

The examples below pair each entry with its known result.
Molecule: O=C(O)CC1CCC(c2ccc(C(=O)Nc3nnc(CCCc4ccc(F)cc4)s3)cc2)CC1 (stereo not shown)
melting point, °C: 229

Molecule: O=C(Nc1nncs1)c1ccc(O[C@H]2CC[C@@H](C(=O)O)CC2)cc1
melting point, °C: 277

Molecule: O=C(O)C[C@H]1CC[C@H](c2ccc(C(=O)Nc3nnc(NC4CCCC4)s3)cc2)CC1
melting point, °C: 335

Alright, here's another molecule for you.
Query block: Give its melting point value. Item: O=C(O)C[C@H]1CC[C@H](c2ccc(C(=O)Nc3nnc(C[S+]([O-])Cc4ccccc4)s3)cc2)CC1 (stereo partly shown)
Result block: 241

====

# Lookup of reported melting point keyed by entry

Molecule: O=C(O)C[C@H]1CC[C@H](c2ccc(C(=O)Nc3nnc(COCC4CCCC4)s3)cc2)CC1 [Compound 40]
Measurement kind: melting point
Recorded result: 241 °C
--
Molecule: O=C(CCc1nnc(NC(=O)c2ccc(O[C@H]3CC[C@@H](C(=O)O)CC3)cc2)s1)c1ccccc1 [Compound 102]
Measurement kind: melting point
Recorded result: 220 to 260 °C
--
Molecule: O=C(O)C[C@H]1CC[C@H](Oc2ccc(C(=O)Nc3nnc(Cc4ccccc4)s3)cc2)CC1 [Compound 81]
Measurement kind: melting point
Recorded result: 230 to 250 °C
--
Molecule: O=C(Nc1nnc(-c2cccc(Cl)c2)s1)c1ccc([C@H]2CC[C@H]([C@H]3C[C@@H]3C(=O)O)CC2)cc1 [Compound 85]
Measurement kind: melting point
Recorded result: > 250 °C
--
Molecule: O=C(O)C[C@H]1CC[C@H](c2ccc(C(=O)Nc3nnc([C@H]4C[C@@H](c5ccccc5)C4)s3)cc2)CC1 [Compound 75]
Measurement kind: melting point
Recorded result: 258 °C
--
Molecule: O=C(Nc1nnc(COCC2CCCO2)s1)c1ccc(O[C@H]2CC[C@H](C(=O)O)CC2)cc1 (stereo partly drawn) [Compound 82]
Measurement kind: melting point
Recorded result: 217 to 223 °C

Query block: Give its melting point value. Item: O=C(O)C[C@H]1CC[C@H](c2ccc(C(=O)Nc3nnc(CCC(O)c4ccccc4)s3)cc2)CC1 (stereo partly drawn) [Compound 84]
Result block: 239 to 242 °C

Query block: Give its melting point value. Item: O=C(O)C[C@H]1CC[C@H](c2ccc(C(=O)Nc3nnc(CC4CCC(O)CC4)s3)cc2)CC1 (stereo partly drawn) [Compound 79]
Result block: > 250 °C

Query block: Give its melting point value. Item: O=C(O)C[C@H]1CC[C@H](c2ccc(C(=O)Nc3nnc(CCC(=O)c4ccccc4)s3)cc2)CC1 [Compound 83]
Result block: 240 to 268 °C

Attribution: patent US8546391B2
